Data origin, for the record: paper PMC3225805

Biological target: RLuc (Renilla reniformis luciferase) (Renilla reniformis, UniProt P27652)
Sequence (P27652 1-311): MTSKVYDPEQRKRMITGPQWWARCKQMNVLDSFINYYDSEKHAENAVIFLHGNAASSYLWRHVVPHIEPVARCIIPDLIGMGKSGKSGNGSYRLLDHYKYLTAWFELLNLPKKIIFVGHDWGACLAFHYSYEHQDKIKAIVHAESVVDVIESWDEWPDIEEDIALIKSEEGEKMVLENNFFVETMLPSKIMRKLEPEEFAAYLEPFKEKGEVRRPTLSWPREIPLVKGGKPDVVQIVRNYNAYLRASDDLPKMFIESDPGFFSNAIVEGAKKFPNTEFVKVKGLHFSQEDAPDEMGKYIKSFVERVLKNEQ
Test: luminescence inhibition, 1536-well CRC
Format: biochemical
measurement_type: IC50

Assay RLuc (Renilla reniformis luciferase) (Renilla reniformis, UniProt P27652), sample `COC(=O)[C@@]1(Cc2ccc(O)c(CC=C(C)C)c2)OC(=O)C(O)=C1c1ccc(O)cc1` , IC50 read: > 57 µM

---

Target: UniProt:P27652
Sequence (P27652 1-311): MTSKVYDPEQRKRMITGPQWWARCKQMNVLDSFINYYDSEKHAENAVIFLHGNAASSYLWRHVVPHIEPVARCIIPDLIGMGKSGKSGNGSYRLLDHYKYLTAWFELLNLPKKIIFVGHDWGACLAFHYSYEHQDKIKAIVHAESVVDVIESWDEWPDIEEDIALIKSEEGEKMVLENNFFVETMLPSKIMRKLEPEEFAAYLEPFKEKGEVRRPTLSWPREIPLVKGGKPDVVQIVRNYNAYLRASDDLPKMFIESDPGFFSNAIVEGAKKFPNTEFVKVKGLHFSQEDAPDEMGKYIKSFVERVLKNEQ
Assay: luminescence inhibition, 1536-well CRC
Type: biochemical
Settings: read-out: RLuc; 5 μM coelenterazine
pIC50: −log10 of the molar value.
measurement_type: pIC50

Reported pIC50 ( CC(C)(O)[C@H]1Cc2cc(/C=C3\OC(=O)C(c4ccc5c(c4)C[C@H](C(C)(C)O)O5)=C3O)ccc2O1 [compound 5, aspulvinone J-CR] ) = < 4.24

---

Molecular target: VLuc (Vibrio fischeri luciferase) (Aliivibrio fischeri, UniProt P19907)
Sequence (P19907 1-354): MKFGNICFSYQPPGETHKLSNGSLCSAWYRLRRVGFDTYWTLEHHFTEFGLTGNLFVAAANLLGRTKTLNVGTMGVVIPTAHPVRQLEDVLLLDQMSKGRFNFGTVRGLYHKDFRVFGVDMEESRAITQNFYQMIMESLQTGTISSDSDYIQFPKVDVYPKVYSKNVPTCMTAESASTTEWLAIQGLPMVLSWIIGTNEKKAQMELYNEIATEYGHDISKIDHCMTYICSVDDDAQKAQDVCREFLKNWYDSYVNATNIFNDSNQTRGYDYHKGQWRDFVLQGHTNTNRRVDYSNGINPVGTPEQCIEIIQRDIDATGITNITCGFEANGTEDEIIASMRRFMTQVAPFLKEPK
Sequence (P19908 1-326 partner): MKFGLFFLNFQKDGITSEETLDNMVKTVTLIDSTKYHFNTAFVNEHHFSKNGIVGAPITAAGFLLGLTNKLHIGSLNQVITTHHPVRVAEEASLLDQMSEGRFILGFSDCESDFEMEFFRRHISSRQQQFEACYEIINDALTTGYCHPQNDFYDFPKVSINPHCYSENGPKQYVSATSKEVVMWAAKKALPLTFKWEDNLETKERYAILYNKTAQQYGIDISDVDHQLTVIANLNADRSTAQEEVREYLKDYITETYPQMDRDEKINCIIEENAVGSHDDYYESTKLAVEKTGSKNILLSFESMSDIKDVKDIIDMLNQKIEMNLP
measurement_type: pIC50
Notebook: values listed as pIC50 are -log10 of the concentration (mol/L).

Tested system VLuc (Vibrio fischeri luciferase) (Aliivibrio fischeri, UniProt P19907); pIC50 recorded for CC(C)(O)[C@H]1Cc2cc(/C=C3\OC(=O)C(c4ccc5c(c4)C[C@H](C(C)(C)O)O5)=C3O)ccc2O1 [compound 5, aspulvinone J-CR] was 5.19
